- system: T1, rhesus ERBB3 on transiently transfected HEK-293 cells (rhesus monkey (Macaca mulatta), UniProt P21860 20-1342 (human entry))
- T1 construct: also called rhesus ERBB3+ HEK-293 cells
- T1 chain: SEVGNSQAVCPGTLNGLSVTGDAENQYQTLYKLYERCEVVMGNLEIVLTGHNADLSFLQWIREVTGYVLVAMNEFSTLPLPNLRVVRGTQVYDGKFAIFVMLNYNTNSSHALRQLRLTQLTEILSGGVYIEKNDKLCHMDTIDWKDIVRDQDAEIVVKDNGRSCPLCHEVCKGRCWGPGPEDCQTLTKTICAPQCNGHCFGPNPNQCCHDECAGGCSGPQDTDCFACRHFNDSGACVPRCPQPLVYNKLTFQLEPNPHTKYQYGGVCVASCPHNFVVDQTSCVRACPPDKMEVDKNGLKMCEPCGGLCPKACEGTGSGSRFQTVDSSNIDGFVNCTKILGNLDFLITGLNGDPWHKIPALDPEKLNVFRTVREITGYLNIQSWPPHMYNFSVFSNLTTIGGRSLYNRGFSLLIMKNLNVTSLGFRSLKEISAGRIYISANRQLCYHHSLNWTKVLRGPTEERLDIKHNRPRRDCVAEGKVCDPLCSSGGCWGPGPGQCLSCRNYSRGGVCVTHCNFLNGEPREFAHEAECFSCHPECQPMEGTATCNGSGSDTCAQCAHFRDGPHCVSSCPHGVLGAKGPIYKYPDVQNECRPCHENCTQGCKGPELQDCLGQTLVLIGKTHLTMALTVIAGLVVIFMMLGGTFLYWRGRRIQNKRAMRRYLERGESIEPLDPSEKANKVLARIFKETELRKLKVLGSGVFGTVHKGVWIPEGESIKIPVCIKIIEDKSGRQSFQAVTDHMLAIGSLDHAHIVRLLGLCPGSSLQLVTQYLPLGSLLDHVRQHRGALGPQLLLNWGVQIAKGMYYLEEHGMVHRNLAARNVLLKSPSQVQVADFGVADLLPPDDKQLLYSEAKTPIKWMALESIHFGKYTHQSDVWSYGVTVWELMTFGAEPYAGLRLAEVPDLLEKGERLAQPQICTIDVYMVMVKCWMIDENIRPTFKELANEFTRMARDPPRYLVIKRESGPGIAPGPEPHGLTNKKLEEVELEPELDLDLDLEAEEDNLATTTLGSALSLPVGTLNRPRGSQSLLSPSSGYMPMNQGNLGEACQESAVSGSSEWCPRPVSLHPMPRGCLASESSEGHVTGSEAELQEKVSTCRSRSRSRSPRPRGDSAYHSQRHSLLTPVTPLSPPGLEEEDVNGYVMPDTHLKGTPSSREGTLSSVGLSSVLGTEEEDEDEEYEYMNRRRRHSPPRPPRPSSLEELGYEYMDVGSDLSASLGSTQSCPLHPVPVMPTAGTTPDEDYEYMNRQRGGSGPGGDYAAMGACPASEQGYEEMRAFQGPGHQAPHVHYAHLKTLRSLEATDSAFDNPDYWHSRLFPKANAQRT
- test-details: flow cytometry, rhesus ERBB3-transfected HEK-293 cells, IgG1 titrated
measured-quantity: binding result

Below, each entry is followed by its recorded binding result result.
binder	measured-quantity	value-reported
15G11-DI9 IgG1 (antibody, V domains shown, Human IgG1 format, human Ckappa) VH: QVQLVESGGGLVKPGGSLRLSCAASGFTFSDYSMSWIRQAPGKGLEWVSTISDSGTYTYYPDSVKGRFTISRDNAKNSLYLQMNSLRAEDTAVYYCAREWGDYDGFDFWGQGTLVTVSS VL: DIQMTQSPSSLSASVGDRVTITCRASQEISTYLSWYQQKPGKAPKLLIYAASTLQSGVPSRFSGSGSGTDFTLTISSLQPEDFATYYCLQYDSSPLTFGGGTKVEIK	binding result	binds
15G11-DI1 IgG1 (antibody, V domains shown, Human IgG1 format, human Ckappa) VH: QVQLVESGGGLVKPGGSLRLSCAASGFTFSDYGMSWVRQAPGKGLEWVSTISDSGSYTYYPDSVKGRFTISRDNAKNSLYLQMNSLRAEDTAVYYCARELGDYDGFDYWGQGTLVTVSS VL: DIQMTQSPSSLSASVGDRVTITCRASQEISSYLSWYQQKPGKAPKLLIYAASSLDTGVPSRFSGSGSGTDFTLTISSLQPEDFATYYCLQYDSTPYTFGGGTKVEIK	binding result	binds
15G11-DI4 IgG1 (antibody, V domains shown, Human IgG1 format, human Ckappa) VH: QVQLVESGGGLVKPGGSLRLSCAASGFTFSDYGMSWVRQAPGKGLEWVSTISDSGSYTYYPDSVKGRFTISRDNAKNSLYLQMNSLRAEDTAVYYCARELGDYDGFDYWGQGTLVTVSS VL: DIQMTQSPSSLSASVGDRVTITCRASQEISTYLSWYQQKPGKAPKLLIYAASSLDTGVPSRFSGSGSGTDFTLTISSLQPEDFATYYCLQYDSSPYTFGGGTKVEIK	binding result	binds
15G11-DI5 IgG1 (antibody, V domains shown, Human IgG1 format, human Ckappa) VH: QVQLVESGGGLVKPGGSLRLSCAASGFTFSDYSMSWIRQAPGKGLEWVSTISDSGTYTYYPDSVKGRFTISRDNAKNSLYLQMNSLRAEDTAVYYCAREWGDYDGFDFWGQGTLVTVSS VL: DIQMTQSPSSLSASVGDRVTITCRASQEISSYLSWYQQKPGKAPKLLIYAASSLDTGVPSRFSGSGSGTDFTLTISSLQPEDFATYYCLQYDSTPYTFGGGTKVEIK	binding result	binds

Kindly consider the entry below.
Can you share its binding result? I mean this binder: 15G11-DI3 IgG1 (antibody, V domains shown, Human IgG1 format, human Ckappa) VH: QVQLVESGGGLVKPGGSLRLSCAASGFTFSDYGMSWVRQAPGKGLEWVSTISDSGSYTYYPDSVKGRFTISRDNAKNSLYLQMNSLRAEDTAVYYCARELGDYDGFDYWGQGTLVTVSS VL: DIQMTQSPSSLSASVGDRVTITCRASQEISSYLSWYQQKPGKAPKLLIYAASSLDTGVPSRFSGSGSGTDFTLTISSLQPEDFATYYCLQYDSSPYTFGGGTKVEIK binds
